Provenance of the data: the nanobody polyreactivity screen of Harvey et al. (2022)

Assay: yeast display, Sf9 membrane polyspecificity reagent, FACS + sequencing; frameworks hold sequencing errors
measured_quantity: polyreactivity (PSR sort gate)

The examples below pair each entry with its known result.
QVQLVESGGGLVQAGGSLRLSCAASGITLKYYAIGWYIQAPGKERELVAAITRSGVGTYYADSVKGRFTISRDNAKNTVYLQMNSLKPEDTAVYYCAAASYQSRYWNYYWGQGTQVTVSS = high polyreactivity
QVQLVESGGGLVQAGGSLRLSCAASGRTFRRYAMGWYRQAPGKERELVAAITSGGSTNYADSVKGRFTISRDNAKNNVYLQMNSLKPEDTAVYYCNARYFRGYDYWGQGTQVTVSS = high polyreactivity
QVQLVESGGGLVQAGGSLRLSCAASGSTFVTYAMGCYRQAPGKERELVAVITYSGGNTYYADSVKGRVTISRDNAKNTVYLQMNSLKPEDTAVYDCAAAWLTSRGSRDSHRKYYYWGQGTQVTVSS = high polyreactivity
QVQLGESGGGLVQAGGSLRLSCAASGRIFAYYTMGWYRQAPGKERELVAAITSGGSTYYADSVKGRFTISRDYAKNTVYLQMNSLKPEATAVYYCAAGWYTPVYLYYYWGQGTQVTVSS = high polyreactivity

Record summary for QVQLVESGGGLVQAGGSLRLSCAASGLIFLTYAMGWYRQAPGKERELLATISGSTGGTYYADSVKGRFTISRDNAKNSVYLKMNSLKPEDTAVYYCNRRYGRSFRWGYCYWGEGTQVTVSS : reported polyreactivity (PSR sort gate) = low polyreactivity

Lab book: polyreactivity (PSR sort gate) of QVQLVESGGGLVQAGGSLRLNCAASGSIFLIYAMGWYRQATGKERELVAGINWSGSRTYNADSVKGRFTISRDNAKNTVYLQMNSLKPEDTAVYYCAARVRRPLYSAYDSWGQGTQVTVSS noted as low polyreactivity

response.value for QVQLVESGGGLVQAGGSLRLSCAASGRTFRYYVMGWYRQAPGKERELVATITSNGDSTYYADSVKGRFTISRDNAKNTVYLQMNSLKPEDTAVYYCAVRWRDYRGSYRGFEYWGQGTQVTVSS (field: polyreactivity (PSR sort gate)) = high polyreactivity

Reported polyreactivity (PSR sort gate) of QVQLVESGGGLDQAGRSLRLSCAASGLIFTDYTMGWYRQAPGKERELVATISTGGRTFYADSVKGRFTISRDNAKNTVYLQMNSLKPEDTAVYYCAKDQPGRAGFLFTPGLVDYDYWGQGTQVTVSS : low polyreactivity

Entry QVQLVESGGGLVQAGGSLRLSCAASGSTFYPNAMGWYRQAPGKERELVAAISGDDSTYYADSVKGRFTISRDNAKNTVYLQMNSLKPEDTAVYYCAAGDYRIGYLYYYWGQGTQVTVSS , polyreactivity (PSR sort gate) reported as low polyreactivity

Recorded polyreactivity (PSR sort gate) (sequence QVQLVESGGGLVQAGGSLRLSCAASGLIFNTYAMGWYRQAPGKERELVAAITDGGGTNYADSVKGRFTISRDNAKNTVYLQMNSLKPEDTAVYYCAARLASWPLTYDFQWYEYWVQGTQVTVSS ): low polyreactivity

// field: polyreactivity (PSR sort gate); key: QVQLVESGGGLVQARGSLRLSCAASGSTLRRYAMGWYRQAPGKERELVAAISGSGDSTYYADSVKGRFTISRDNAKNTVYLQMNSLKPEDTAVYYCNAVYAFNGYDYWGQGSQVTVSS ; value = low polyreactivity
